# target.or.test.system: p66^501BpF/p51 RT (Human immunodeficiency virus type 1, UniProt P03366, Y1100X)
# procedure.text: FRET-based RNase H assay
pIC50: −log10 of the molar value.
measure: pIC50

Given item CC(C)c1ccc(O)c(=O)c(O)c1 , the value recorded as its pIC50 is < 3.52
